test: AUC (0 to last) in Swiss albino mouse at 75 mg/kg,ip administration measured for 0.5 to 12 hrs by LC-MS/MS analysis; format: ADME, organism-based; parameters: time upper 12 hrs, dose 75 mg/kg, time lower 0.5 hrs, route ip; conditions: in vivo
Recorded metric: AUC(0-t) (ng·h/mL)
// note: answer is a bare numeric in ng·h/mL

[Q] Entry `Cc1ncsc1-c1ccc(CNC(=O)[C@@H]2C[C@@H](O)CN2C(=O)[C@@H](NC(=O)CNC(=O)c2ccc(F)c(-c3ccc(N4C[C@@H](C)N(C)[C@@H](C)C4)c(NC(=O)c4c[nH]c(=O)cc4C(F)(F)F)c3)c2)C(C)(C)C)cc1` : reported AUC(0-t) = ?
[A] 7300
